experiment: NCI Yeast Anticancer Drug Screen. Data for the cln2 rad14 strain (AID 165);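 note: 0% = growth equal to vehicle treated cultures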; details: S. cerevisiae cln2 rad14 strain, at 50.0 µM (retest, dose inferred, filed as 5.0), stronger effect = higher value
About 79,000 compounds went through this panel and 15% of them were active in at least one assay; those are over-represented in the sample as a whole. *1 amine or outer side, *2 acyl side, *3 side chain or, on linkers, in order; H or OH if unused. Where a SMILES comes first, the peptide text is derived from it. [ ]: non-standard residue; d: D form. X2 = CC[C@H](C)[C@H](OC(=O)[C@@H](C)[C@@H](CC)N[*:1])C(=O)[*:2]; X3 = C[C@H](N[*:1])C(=O)C(C)(C)C(=O)[*:2]; NMeY = CN[C@@H](Cc1ccc(O)cc1)C(=O)O; NMeL = CN[C@@H](CC(C)C)C(=O)O; NMeV = CN[C@H](C(=O)O)C(C)C
# Lookup of reported growth inhibition keyed by entry
PARAMETER: growth inhibition (%)

COMPOUND | MEASURED NUMBER
CC[C@H](C)[C@@H]1OC(=O)[C@@H](C)[C@@H](CC)NC(=O)[C@H](C)NC(=O)C(C)(C)C(=O)[C@H](C)NC(=O)[C@H](Cc2ccc(OC)cc2)N(C)C(=O)[C@H](C(C)C)N(C)C(=O)CNC(=O)[C@H](CC(C)C)N(C)C(=O)CNC1=O (cyclo(A[X2]G[NMeL]G[NMeV][NMeY](Me)[X3])) | 98
O=[N+]([O-])/C=C/c1cc2c(cc1Br)OCO2 | 62
Nc1c(Cl)cccc1C(=O)O | -7
CC/C(=C\c1ccc(Cl)cc1)[N+](=O)[O-] | 99
CC1=C(O)C(=O)C=C2C1=CC=C1[C@@]2(C)CCC2(C)[C@@H]3C[C@@H](C)C(=O)C[C@]3(C)CC[C@]12C (some centres not stated) | 97
C=CCN1C(=O)NC(=O)/C(=C/c2c3ccccc3cc3ccccc23)C1=O | 98
CCCCCOC(=O)CCl | 8
O=C([O][Hg][CH2]C1CC(O)CC([CH2][Hg][O]C(=O)c2ccccc2)O1)c1ccccc1 (configuration not stated) | 97
O=P(c1ccccc1)(c1ccccc1)c1ccccc1.O=P(c1ccccc1)(c1ccccc1)c1ccccc1.S=C=[N][Sn]([N]=C=S)([N]=C=S)[c]1ccccc1 | 98
CCOP(=S)(OCC)OC(c1ccc(Cl)cc1)c1ccc(Cl)cc1 | -29
Cc1cc(N(CCCl)CCCl)ccc1CN1CCCN(Cc2ccc(N(CCCl)CCCl)cc2C)C1c1cccc(F)c1 | 97
Cc1ccc(N=P(c2ccccc2)(c2ccccc2)c2ccccc2)cc1.[I][Hg][I] | 99
CN(Cc1ccccc1)CC(O)c1ccc(Cl)cc1 (configuration not stated) | 25
CCCCC(CC)CNP(=S)(NCC(CC)CCCC)NCC(CC)CCCC (configuration not stated) | 20
C[C@]12CC[C@H](O)CC1=CC[C@@H]1[C@@H]2CC[C@]2(C)C(=O)CC[C@@H]12 | 75
O=C(O)Cc1ccc2c(c1)OCO2.[Ag] | 94
CC[C@@]1(O)C(=O)OCc2c1cc1n(c2=O)Cc2cc3ccccc3nc2-1 | 89
O=[N+]([O-])c1c(Cl)sc(Cl)c1[N+](=O)[O-] | 99
COC([CH2][Hg][n]1cnc2c1c(=O)n(C)c(=O)n2C)CN1C(=O)c2ccccc2S1(=O)=O (configuration not stated) | 69
CC12CCC(C)(c3cc(O)c(O)cc31)c1cc(O)c(O)cc12 | 19
CN1CSC(=S)N(C)C1 | 98
CCC[CH2][Sn]1([CH2]CCC)[O]CC(c2ccccn2)C[O]1 | 97
C[CH2][Pb]([CH2]C)([CH2]C)[n]1cnc2ccccc21 | 62
O=C(O)CCCOc1cc(Cl)c(Cl)cc1Cl | 47
CC(Br)c1ccccc1 (configuration not stated) | 7
ClCCN(CCCl)CCN1c2ccccc2Sc2ccc3ccccc3c21 | 18
CC(C)(C)c1cc([N+](=O)[O-])cc([N+](=O)[O-])c1O | 21
C[C@@]12CCC(=O)C=C1CC[C@H]1C2=CC[C@]2(C)C1CC[C@@]2(C)O (some centres not stated) | 30
CSCCl | 97
ClCCN(CCCl)B(N(CCCl)CCCl)N(CCCl)CCCl | -2
O=C(O)c1cc([N+](=O)[O-])c(Cl)c([N+](=O)[O-])c1Cl | 100
O=C(C1C(c2ccccc2)N1C(c1ccccc1)c1ccccc1)C1C(c2ccccc2)N1C(c1ccccc1)c1ccccc1 (configuration not stated) | 6
CC12CCC(O)CC1CCC1C2CCC2(C)C(C(=O)CC(O)C(F)(F)F)CCC12 (configuration not stated) | 66
CCCCCCCCCCCCC(=O)[O][Hg][c]1ccccc1 | 99
Cn1cnc(N)c1C(=N)[Se] | -40
C[CH2][Sn]1([CH2]C)[c]2ccccc2Oc2cccc[c]21 | 98
CC(C)(C)OC(=O)NC(CSC(c1ccccc1)(c1ccccc1)c1cccs1)C(=O)O (configuration not stated) | 99
C[C@H]1C/C=C/[C@H]2[C@@H]3O[C@]3(C)[C@@H](C)[C@H]3[C@H](Cc4ccccc4)NC(=O)[C@]32OC(=O)O/C=C/[C@@](C)(O)C1=O | 36
O=C(CI)NCc1ccccc1 | 99
Cc1ccc2c(c1)C1(C)c3cc(C)ccc3SP1S2 (configuration not stated) | 71
c1c(N2CCOCC2)ssc1=[N+]1CCOCC1 | 7
CC/C(=C/c1ccc2c(c1)OCO2)[N+](=O)[O-] | 100

These measurements were taken from PubChem BioAssay (NCI).
